MIC overview
System: Klebsiella pneumoniae
Assay: Antibacterial activity against Klebsiella pneumoniae isolate 12-1
Format: functional
Put down the number, then write its unit next to it.

>>> df
                                   compound  experimental_endpoint  data_value
0  CO/N=C1\CN(c2nc3c(cc2F)c(=O)c(C(=O)O)cn3C2CC2)CC1CN (stereo not drawn)                    MIC  0.03 µg/mL
1  CNC1CCN(c2c(F)cc3c(=O)c(C(=O)O)cn4c3c2OC[C@@H]4C)C/C1=N\OC (stereo partly drawn)                    MIC     1 µg/mL

# input What value of MIC has been reported for the following compound? CO/N=C1\CN(c2c(F)cc3c(=O)c(C(=O)O)cn(C4CC4)c3c2OC)CCC1N (stereo not drawn)
# output 2 µg/mL

# input What value of MIC has been reported for the following compound? O=C1NC2CCN(c3nc4c(cc3F)c(=O)c(C(=O)O)cn4C3CC3)CC2O1 (stereo not drawn)
# output 2 µg/mL

---

MIC overview
Tested on: Klebsiella pneumoniae
Assay: Antibacterial activity against Klebsiella pneumoniae isolate 12-1
Format: functional
Number only, in mg/L; omit the unit.

>>> print(df.to_string())
                                   molecule  data_value
0  CCO/N=C1\CN(c2c(F)cc3c(=O)c(C(=O)O)cn(C4CC4)c3c2F)CCC1NC (centres undefined)           2

# input What value of MIC has been reported for the following molecule? CNC1CCN(c2c(F)cc3c(=O)c(C(=O)O)cn(C4CC4)c3c2OC)C/C1=N\OC (centres undefined)
# output 1

# input What value of MIC has been reported for the following molecule? CCO/N=C1\CN(c2c(F)cc3c(=O)c(C(=O)O)cn(C4CC4)c3c2OC)CCC1NC (centres undefined)
# output 4

# input What value of MIC has been reported for the following molecule? O=C(O)c1cn(C2CC2)c2cc(N3CCNCC3)c(F)cc2c1=O
# output 0.03
